# melting point per record follows

Request: Which melting point is reported for this compound? COc1cc(OC)cc(-c2nc3ccc(F)cc3s2)c1
Result: 138 to 140 °C

Request: Cool, now COc1cc(-c2nc3ccc([N+](=O)[O-])cc3s2)cc(OC)c1OC
Result: 200 to 201 °C

Request: Cool, now COc1cc(-c2nc3ccc(F)cc3s2)cc(OC)c1OC
Result: 156 to 158 °C

Request: Cool, now COc1ccc(-c2nc3ccc([N+](=O)[O-])cc3s2)cc1OC
Result: 221 to 222 °C

Request: Cool, now COc1ccc(OC)c(-c2nc3ccc(Cl)cc3s2)c1
Result: 220 to 222 °C

Request: Cool, now COc1cc(OC)cc(C(=O)Nc2ccc3nc(-c4cc(OC)cc(OC)c4)sc3c2)c1
Result: 159 to 162 °C

----------
# melting point per record follows

# COMPOUND, melting point
rows = [
    ("COc1ccc(OC)c(-c2nc3ccc(C#N)cc3s2)c1 [Compound 28]", "182 to 184 °C"),
    ("COc1ccc(-c2nc3ccc(Br)cc3s2)c(OC)c1 [Compound 17]", "148 to 149 °C"),
    ("COc1cc(-c2nc3ccc(Cl)cc3s2)cc(OC)c1OC [Compound 43]", "173 to 174 °C"),
    ("COc1cc(OC)cc(-c2nc3ccc(NC(=O)c4ccccc4)cc3s2)c1 [Compound 13]", "138 to 140 °C"),
    ("Fc1cccc(-c2nc3ccc(F)cc3s2)c1 [Compound 55]", "111 to 112 °C"),
    ("COc1cc(-c2nc3ccc(NC(C)=O)cc3s2)cc(OC)c1OC [Compound 49]", "208 to 209 °C"),
]

Request: Which melting point is reported for this compound? COc1cc(OC)cc(-c2nc3ccc(NC(C)=O)cc3s2)c1 [Compound 12]
Result: 179 to 181 °C

Request: Cool, now COc1ccc(-c2nc3ccc(C#N)cc3s2)c(OC)c1 [Compound 20]
Result: 235 to 237 °C

Request: Cool, now COc1ccc(-c2nc3ccc(F)cc3s2)cc1 [Compound 54]
Result: 127 to 130 °C

Request: Cool, now COc1cc(OC)cc(-c2nc3ccc(Cl)cc3s2)c1 [Compound 6]
Result: 150 to 151 °C

Request: Cool, now COc1ccc(-c2nc3ccc(OC)cc3s2)c(OC)c1 [Compound 16]
Result: 150 to 151 °C

Request: Cool, now COc1ccc(-c2nc3ccc(Cl)cc3s2)c(OC)c1 [Compound 19]
Result: 170 to 171 °C

Request: Cool, now COc1cc(-c2nc3ccc(C#N)cc3s2)cc(OC)c1OC [Compound 44]
Result: 228 to 230 °C

Request: Cool, now COc1ccc(OC)c(-c2nc3ccc(Br)cc3s2)c1 [Compound 25]
Result: 135 to 137 °C

Request: Cool, now COc1cc(OC)cc(C(=O)Nc2ccc3nc(-c4cc(OC)c(OC)c(OC)c4)sc3c2)c1 [Compound 51]
Result: 185 to 187 °C

Request: Cool, now COc1ccc(-c2nc3ccc(F)cc3s2)c(OC)c1 [Compound 21]
Result: 157 to 158 °C

Request: Cool, now COc1cccc(-c2nc3ccc(F)cc3s2)c1 [Compound 53]
Result: 103 to 105 °C

Request: Cool, now Oc1ccc2nc(-c3cc(O)c(O)c(O)c3)sc2c1 [Compound 52]
Result: 240 to 242 °C

Request: Cool, now COc1cc(OC)cc(-c2nc3ccc(I)cc3s2)c1 [Compound 9]
Result: 150 to 152 °C

Request: Cool, now COc1cc(-c2nc3ccc(Br)cc3s2)cc(OC)c1OC [Compound 41]
Result: 171 to 172 °C

Request: Cool, now COc1cc(OC)cc(-c2nc3ccc(C#N)cc3s2)c1 [Compound 7]
Result: 222 to 224 °C

Hello, the source for this data is paper PMC11593696, in case you need it.
